Entries and their pIC50 values follow.
Test system: GM1 production in Jurkat cells
Experiment: cells
Type: cell-based
Conditions: Homo sapiens, Jurkat, 72 h
pIC50: −log10 of the molar value.
endpoint: pIC50

>>> readout_value("CCC1(CC)Cc2cc(-c3ccc(C4CC4)cc3)ccc2C1NC(=O)O[C@@H]1CN2CCC1CC2 (stereo partly shown) [Example 281]")
8.30
>>> readout_value("CC1(C)Cc2cc(-c3cccc(OCCF)c3)ccc2C1NC(=O)O[C@@H]1CN2CCC1CC2 (stereo partly shown) [Example 197]")
8.06
>>> readout_value("CC1(C)Cc2cc(-c3ccc4c(c3)CCO4)ccc2C1NC(=O)O[C@@H]1CN2CCC1CC2 (stereo partly shown) [Example 113]")
7.26
>>> readout_value("CC1(C)Cc2cc(-c3cc(F)ccc3F)ccc2C1NC(=O)O[C@@H]1CN2CCC1CC2 (stereo partly shown) [Example 88]")
7.95

---

Tested on: GM1 production in Jurkat cells
Assay: cells
Assay type: cell-based
Conditions: Homo sapiens, Jurkat, 72 h
endpoint: IC50 (nM)

>>> readout_value("COc1cc(F)cc(-c2ccc3c(c2)CC(C)(C)C3NC(=O)O[C@@H]2CN3CCC2CC3)c1 (stereo partly shown)")
25.6
>>> readout_value("Cc1ccc(-c2ccc3c(c2)CCC3NC(=O)O[C@@H]2CN3CCC2CC3)cc1 (stereo partly shown)")
41.7
>>> readout_value("O=C(NC1CCc2cc(-c3cccc(OC(F)(F)F)c3)ccc21)O[C@@H]1CN2CCC1CC2 (stereo partly shown)")
27.4
>>> readout_value("CC1(C)Cc2ccc(-c3cc(F)cc(F)c3)cc2C1NC(=O)O[C@@H]1CN2CCC1CC2 (stereo partly shown)")
128
>>> readout_value("COc1ccc(-c2cc3c(cc2F)C(NC(=O)O[C@@H]2CN4CCC2CC4)C(C)(C)C3)c(OC)c1 (stereo partly shown)")
59.9
>>> readout_value("CC1(C)Cc2cc(/C=C/C3CCCCC3)ccc2C1NC(=O)O[C@@H]1CN2CCC1CC2 (stereo partly shown)")
25
>>> readout_value("CC1(C)Cc2cc(-c3ccccc3OC(F)(F)F)ccc2C1NC(=O)O[C@@H]1CN2CCC1CC2 (stereo partly shown)")
4.9
>>> readout_value("CC1(C)Cc2ccc(-c3ccc(F)c(F)c3F)cc2C1NC(=O)O[C@@H]1CN2CCC1CC2 (stereo partly shown)")
144
>>> readout_value("CCCc1ccc(-c2ccc3c(c2)CC(CC)(CC)C3NC(=O)O[C@@H]2CN3CCC2CC3)cc1 (stereo partly shown)")
6
>>> readout_value("COc1cc2c(cc1-c1cccc(OCC(C)C)c1)CC(C)(C)C2NC(=O)O[C@@H]1CN2CCC1CC2 (stereo partly shown)")
45.7
>>> readout_value("COc1cc(OC)cc(-c2cc3c(cc2OC)C(NC(=O)O[C@@H]2CN4CCC2CC4)C(C)(C)C3)c1 (stereo partly shown)")
45.7
>>> readout_value("CC1(C)Cc2cc(-c3csc4ccccc34)ccc2C1NC(=O)O[C@@H]1CN2CCC1CC2 (stereo partly shown)")
13.2
>>> readout_value("CCC1(CC)Cc2cc(-c3cccc(C(C)C)c3)ccc2C1NC(=O)O[C@@H]1CN2CCC1CC2 (stereo partly shown)")
8.7
>>> readout_value("CCCCOc1c(C)cc(-c2cc3c(cc2OC)C(NC(=O)O[C@@H]2CN4CCC2CC4)C(C)(C)C3)cc1C (stereo partly shown)")
22.6
>>> readout_value("CC(C)c1cccc(-c2ccc3c(c2)CC(C)(C)C3NC(=O)O[C@@H]2CN3CCC2CC3)c1 (stereo partly shown)")
7.8
>>> readout_value("CCOc1cccc(-c2ccc3c(c2)CC(CC)(CC)C3NC(=O)O[C@@H]2CN3CCC2CC3)c1 (stereo partly shown)")
12.3
>>> readout_value("COc1cc2c(cc1-c1ccc(OC(C)C)c(Cl)c1)CC(C)(C)C2NC(=O)O[C@@H]1CN2CCC1CC2 (stereo partly shown)")
24.4
>>> readout_value("CC1(C)Cc2ccc(-c3ccc(Cl)cc3)cc2C1NC(=O)O[C@@H]1CN2CCC1CC2 (stereo partly shown)")
52.3
>>> readout_value("CCc1cccc(-c2ccc3c(c2)CC(C)(C)C3NC(=O)O[C@@H]2CN3CCC2CC3)c1 (stereo partly shown)")
7.6
>>> readout_value("CCC1(CC)Cc2cc(-c3cccc(OC)c3OC)ccc2C1NC(=O)O[C@@H]1CN2CCC1CC2 (stereo partly shown)")
35
>>> readout_value("CC1(C)Cc2ccc(-c3ccc(F)cc3F)cc2C1NC(=O)O[C@@H]1CN2CCC1CC2 (stereo partly shown)")
117
>>> readout_value("CCOc1c(C)cc(-c2ccc3c(c2)CC(C)(C)C3NC(=O)O[C@@H]2CN3CCC2CC3)cc1C (stereo partly shown)")
40.2
>>> readout_value("COc1cccc(-c2ccc3c(c2)CC(C)(C)C3NC(=O)O[C@@H]2CN3CCC2CC3)c1Cl (stereo partly shown)")
22.3
>>> readout_value("O=C(NC1CCc2cc(-c3cccc(F)c3)ccc21)O[C@@H]1CN2CCC1CC2 (stereo partly shown)")
70.2
>>> readout_value("CC(C)Oc1cccc(-c2ccc3c(c2)CC(C)(C)C3NC(=O)O[C@@H]2CN3CCC2CC3)c1 (stereo partly shown)")
15.2
>>> readout_value("COc1cc2c(cc1-c1cccc(C(C)(C)C)c1)CC(C)(C)C2NC(=O)O[C@@H]1CN2CCC1CC2 (stereo partly shown)")
65
>>> readout_value("COCCOc1ccc(-c2ccc3c(c2)CC(C)(C)C3NC(=O)O[C@@H]2CN3CCC2CC3)cn1 (stereo partly shown)")
83.1
>>> readout_value("CC1(C)Cc2cc(-c3ccc(F)c(Cl)c3)ccc2C1NC(=O)O[C@@H]1CN2CCC1CC2 (stereo partly shown)")
51.5
>>> readout_value("COc1ccc(F)cc1-c1ccc2c(c1)CC(C)(C)C2NC(=O)O[C@@H]1CN2CCC1CC2 (stereo partly shown)")
13.6
>>> readout_value("O=C(NC1CCc2cc(-c3ccc(Cl)cc3)ccc21)O[C@@H]1CN2CCC1CC2 (stereo partly shown)")
202
>>> readout_value("CCOc1ccc(-c2ccc3c(c2)CC(C)(C)C3NC(=O)O[C@@H]2CN3CCC2CC3)cc1C(F)(F)F (stereo partly shown)")
13
